quantity-name: melting point

compound | melting point
Cl.N#Cc1ccccc1-c1ccc(N)nc1N [Compound 96, 2-(2,6-diamino-3-pyridyl)benzonitrile] | > 250 °C
COc1ncccc1-c1ccc(N)nc1N [Compound 89] | 174 to 176 °C
CC(C)Oc1cc(F)ccc1-c1ccc(N)nc1N [Compound 53] | 59 to 63 °C
COc1ccc(-c2ccc(N)nc2N)c(C)c1 [Compound 40] | 150 to 158 °C
Cc1nc(F)ccc1-c1ccc(N)nc1N [Compound 85] | 186 to 192 °C
Nc1ccc(-c2ccc(F)cc2Cl)c(N)n1 [Compound 45] | 150 to 155 °C

If you can, please state the reported melting point value of Cc1c(Cl)cccc1-c1cc(F)c(N)nc1N [Compound 66] .
128 to 135 °C

And then Nc1ccc(-c2cccc(Cl)c2Cl)c(C(F)(F)F)n1 [Compound 34] , what is it?
165 to 170 °C

And then Nc1ncc(-c2cccc(Cl)c2Cl)cc1F [Compound 16] , what is it?
130 to 136 °C

And then Cc1ccc(-c2ccc(N)nc2N)c2ccccc12.Cl [Compound 71] , what is it?
127 to 132 °C
